# Test system: Nomo-1
# MEASUREMENT_PROTOCOL: IncuCyte Kinetic Caspase-3/7 Apoptosis Assay
# Format: cell-based
# CONDITION: Homo sapiens, 48 hr, read-out: Compound 1-induced Apoptosis EC50
# Description: Methods. […] Cell Culture Conditions: Cell lines were maintained in growth media containing 20% fetal bovine serum (FBS) (Hyclone Cat no. SH30910.03, Lot no. AZF188864; Corning REFno. 35-010-CV, Lot no. 35010124) supplemented with or without 10 ng/mL human recombinant granulocyte-macrophage colony stimulating factor (Sigma-Aldrich Cat no. SRP3050) (Table 8). […] The use of EMEM was necessary to eliminate background fluorescence caused by riboflavin in most media. […]
READOUT_NAME: pEC50
Give only the number. pEC50 is defined as minus log10 of concentration in molar units.

Param item = O=C1CCC(N2Cc3cc(CNC(=O)C(F)(F)c4ccc(Cl)cc4)ccc3C2=O)C(=O)N1 (stereo not shown) ; retrieve measured pEC50.
6.88
